Molecular target: PD-1 (UniProt Q15116 25-167, limits assumed)
Sequence (Q15116 25-167 limits assumed): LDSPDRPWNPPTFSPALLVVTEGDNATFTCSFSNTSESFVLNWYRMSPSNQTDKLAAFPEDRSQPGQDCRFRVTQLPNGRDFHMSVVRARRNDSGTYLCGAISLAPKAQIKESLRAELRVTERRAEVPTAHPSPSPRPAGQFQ
Experiment: ELISA; Cys mutant, no arm
REPORTED ENDPOINT: binding activity, % of wild type (%)

- BINDER: "anti-PD-1 antibody 2 HC Ala40Cys (antibody, human IgG4 S228P, kappa, V domains shown, arm on Cys40 as named in each row) VH: QVQLVESGGGVVQPGRSLRLDCKASGITFSNSGMHWVRQCPGKGLEWVAVIWYDGSKRYYADSVKGRFTISRDNSKNTLFLQMNSLRAEDTAVYYCATNDDYWGQGTLVTVSS VL: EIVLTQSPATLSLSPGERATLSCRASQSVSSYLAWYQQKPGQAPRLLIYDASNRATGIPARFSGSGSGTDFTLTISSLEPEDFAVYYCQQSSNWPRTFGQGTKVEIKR"
  REPORTED ENDPOINT: "binding activity, % of wild type"
  REPORTED RESULT: 85.3
- BINDER: "anti-PD-1 antibody 2 HC Ala24Cys (antibody, human IgG4 S228P, kappa, V domains shown, arm on Cys24 as named in each row) VH: QVQLVESGGGVVQPGRSLRLDCKCSGITFSNSGMHWVRQAPGKGLEWVAVIWYDGSKRYYADSVKGRFTISRDNSKNTLFLQMNSLRAEDTAVYYCATNDDYWGQGTLVTVSS VL: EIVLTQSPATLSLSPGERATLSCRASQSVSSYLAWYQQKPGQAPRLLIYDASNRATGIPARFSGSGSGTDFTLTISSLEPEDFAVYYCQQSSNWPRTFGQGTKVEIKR"
  REPORTED ENDPOINT: "binding activity, % of wild type"
  REPORTED RESULT: 99.6
- BINDER: "anti-PD-1 antibody 2 HC Ser85Cys (antibody, human IgG4 S228P, kappa, V domains shown, arm on Cys85 as named in each row) VH: QVQLVESGGGVVQPGRSLRLDCKASGITFSNSGMHWVRQAPGKGLEWVAVIWYDGSKRYYADSVKGRFTISRDNSKNTLFLQMNCLRAEDTAVYYCATNDDYWGQGTLVTVSS VL: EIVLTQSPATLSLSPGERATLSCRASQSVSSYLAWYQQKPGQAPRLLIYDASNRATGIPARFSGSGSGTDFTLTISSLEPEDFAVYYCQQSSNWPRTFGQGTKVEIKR"
  REPORTED ENDPOINT: "binding activity, % of wild type"
  REPORTED RESULT: 98.8
- BINDER: "anti-PD-1 antibody 2 HC Ser25Cys (antibody, human IgG4 S228P, kappa, V domains shown, arm on Cys25 as named in each row) VH: QVQLVESGGGVVQPGRSLRLDCKACGITFSNSGMHWVRQAPGKGLEWVAVIWYDGSKRYYADSVKGRFTISRDNSKNTLFLQMNSLRAEDTAVYYCATNDDYWGQGTLVTVSS VL: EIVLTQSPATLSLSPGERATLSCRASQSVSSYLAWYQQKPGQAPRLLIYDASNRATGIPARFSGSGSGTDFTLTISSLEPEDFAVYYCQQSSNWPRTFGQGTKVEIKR"
  REPORTED ENDPOINT: "binding activity, % of wild type"
  REPORTED RESULT: 99.8
- BINDER: "anti-PD-1 antibody 2 HC Gly9Cys (antibody, human IgG4 S228P, kappa, V domains shown, arm on Cys9 as named in each row) VH: QVQLVESGCGVVQPGRSLRLDCKASGITFSNSGMHWVRQAPGKGLEWVAVIWYDGSKRYYADSVKGRFTISRDNSKNTLFLQMNSLRAEDTAVYYCATNDDYWGQGTLVTVSS VL: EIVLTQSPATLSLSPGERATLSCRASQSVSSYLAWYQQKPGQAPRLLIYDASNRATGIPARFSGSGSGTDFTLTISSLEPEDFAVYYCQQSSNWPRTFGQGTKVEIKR"
  REPORTED ENDPOINT: "binding activity, % of wild type"
  REPORTED RESULT: 97.8
